The reported measurements were obtained from patent US7354936B2.

Target: COX-2 (Homo sapiens, UniProt P35354)
Construct: incubated in the presence of LPS (10:g/ml) for 24 h at 37° C. in order to induce the COX-2 expression
Sequence (P35354 18-604): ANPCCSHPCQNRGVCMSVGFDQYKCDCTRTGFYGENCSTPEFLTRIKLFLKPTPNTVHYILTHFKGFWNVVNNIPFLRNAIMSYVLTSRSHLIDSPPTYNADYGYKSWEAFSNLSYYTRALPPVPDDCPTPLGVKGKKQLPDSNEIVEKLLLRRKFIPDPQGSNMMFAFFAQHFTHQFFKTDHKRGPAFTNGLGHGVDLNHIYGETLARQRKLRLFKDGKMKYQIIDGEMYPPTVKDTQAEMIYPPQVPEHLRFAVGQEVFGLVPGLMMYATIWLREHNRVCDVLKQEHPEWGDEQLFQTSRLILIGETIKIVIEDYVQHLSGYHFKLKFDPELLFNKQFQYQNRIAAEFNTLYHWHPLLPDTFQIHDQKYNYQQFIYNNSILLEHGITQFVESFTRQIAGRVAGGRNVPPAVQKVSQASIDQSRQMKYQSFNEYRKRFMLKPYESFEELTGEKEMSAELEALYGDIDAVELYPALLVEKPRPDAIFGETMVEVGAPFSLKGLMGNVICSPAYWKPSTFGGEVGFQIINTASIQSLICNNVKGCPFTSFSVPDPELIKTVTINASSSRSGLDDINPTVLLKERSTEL
Assay: COX-2 activity in human whole blood (PGE2, LPS-induced)
Details: LPS 24 h at 37° C., PGE2 by ELISA
Parameter Measured: IC50 (nM)
Answers are plain numbers, in nM.

COCc1cc(=O)c(Oc2ccc(Cl)cc2)c(-c2ccc(S(C)(=O)=O)cc2)o1; 440
Cc1cccc(Oc2c(-c3ccc(S(C)(=O)=O)cc3)oc(C)cc2=O)c1; 300
CC(=O)OCc1cc(=O)c(Oc2ccc(Cl)cc2)c(-c2ccc(S(C)(=O)=O)cc2)o1; 1100

The following compounds each have a reported value; give each one's IC50.
1. CS(=O)(=O)c1ccc(-c2oc(C(=O)O)cc(=O)c2Oc2ccc(F)cc2F)cc1
2. Cc1oc(-c2ccc(S(C)(=O)=O)cc2)c(Oc2ccc(F)cc2F)c(=O)c1Br
3. CC(=O)OCc1cc(=O)c(Oc2ccc(F)cc2)c(-c2ccc(S(C)(=O)=O)cc2)o1
4. Cc1ccc(Oc2c(-c3ccc(S(C)(=O)=O)cc3)oc(C)cc2=O)c(Cl)c1
5. CS(=O)(=O)c1ccc(-c2oc(CO)cc(=O)c2Oc2ccc(Cl)cc2)cc1
6. COCc1cc(=O)c(Oc2ccc(F)cc2)c(-c2ccc(S(C)(=O)=O)cc2)o1

OUTPUT:
420
780
140
240
600
320

The following compounds each have a reported value; give each one's IC50.
1. CS(=O)(=O)c1ccc(-c2oc(CO)cc(=O)c2Oc2ccc(F)cc2F)cc1
2. Cc1oc(-c2ccc(S(C)(=O)=O)cc2)c(Oc2ccc(Cl)cc2)c(=O)c1Cl
3. COCc1cc(=O)c(Oc2ccc(F)cc2F)c(-c2ccc(S(C)(=O)=O)cc2)o1
4. CCc1c(C)oc(-c2ccc(S(C)(=O)=O)cc2)c(Oc2ccc(F)cc2F)c1=O

OUTPUT:
1: 190; 2: 530; 3: 170; 4: 580

The following compounds each have a reported value; give each one's IC50.
1. Cc1oc(-c2ccc(S(C)(=O)=O)cc2)c(Oc2ccc(Cl)cc2)c(=O)c1Br
2. Cc1cc(=O)c(Oc2ccccc2C)c(-c2ccc(S(C)(=O)=O)cc2)o1
3. Cc1cc(=O)c(Oc2ccc(Br)cc2Cl)c(-c2ccc(S(C)(=O)=O)cc2)o1
4. CS(=O)(=O)c1ccc(-c2oc(CO)cc(=O)c2Oc2ccc(F)cc2)cc1

OUTPUT:
820
86
210
1440

----------
target: COX-2 (Homo sapiens, UniProt P35354); construct: incubated in the presence of LPS (10:g/ml) for 24 h at 37° C. in order to induce the COX-2 expression; from tissue; host or cells: human whole blood (heparinized) from healthy volunteers, LPS-stimulated for 24 h; assay: COX-2 activity in human whole blood (PGE2, LPS-induced); format: cell-based; conditions: ratio of COX-1/COX-2 IC50 values
Please provide measured Ratio COX-1/COX-2 for the entries that follow.
One number for each entry.

Solved cases below.
Cc1ccc(Oc2c(-c3ccc(S(C)(=O)=O)cc3)oc(C(F)F)cc2=O)cc1; 294
CS(=O)(=O)c1ccc(-c2oc(CO)cc(=O)c2Oc2ccc(F)cc2F)cc1; 279
Cc1cc(=O)c(Oc2ccccc2C)c(-c2ccc(S(C)(=O)=O)cc2)o1; 231

INPUT: Entry `C=Cc1c(C)oc(-c2ccc(S(C)(=O)=O)cc2)c(Oc2ccc(F)cc2F)c1=O` : reported Ratio COX-1/COX-2 = ?
OUTPUT: 22

----------
target: COX-1 (Homo sapiens); construct: Fresh blood from healthy volunteers; assay: COX-1 activity in human whole blood (TXB2, calcium ionophore A23187); conditions: 1 h at 37° C., TXB2 by ELISA
Sequence (P23219 24-599): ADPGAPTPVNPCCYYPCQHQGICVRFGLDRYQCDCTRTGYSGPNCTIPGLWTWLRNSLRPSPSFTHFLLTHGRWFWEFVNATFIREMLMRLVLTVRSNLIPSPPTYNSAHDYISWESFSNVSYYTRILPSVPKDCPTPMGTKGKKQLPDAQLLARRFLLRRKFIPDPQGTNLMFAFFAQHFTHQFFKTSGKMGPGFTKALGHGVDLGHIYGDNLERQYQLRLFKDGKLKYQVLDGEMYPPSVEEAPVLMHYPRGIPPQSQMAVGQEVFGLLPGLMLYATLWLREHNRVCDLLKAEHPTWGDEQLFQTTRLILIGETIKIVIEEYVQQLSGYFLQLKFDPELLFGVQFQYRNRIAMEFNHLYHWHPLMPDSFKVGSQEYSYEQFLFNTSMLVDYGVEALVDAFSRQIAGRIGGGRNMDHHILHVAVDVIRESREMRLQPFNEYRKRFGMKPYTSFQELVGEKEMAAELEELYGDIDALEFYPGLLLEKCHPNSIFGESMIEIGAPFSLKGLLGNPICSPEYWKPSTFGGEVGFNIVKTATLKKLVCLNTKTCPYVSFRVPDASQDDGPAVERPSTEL
Please provide measured IC50 for the entries that follow.

The following compounds each have a reported value; give each one's IC50.
1. CS(=O)(=O)c1ccc(-c2oc(C(=O)O)cc(=O)c2Oc2ccc(F)cc2F)cc1 [Example 32]
2. COCc1cc(=O)c(Oc2ccc(F)cc2F)c(-c2ccc(S(C)(=O)=O)cc2)o1 [Example 26]

OUTPUT:
["450 µM", "21.1 µM"]

The following compounds each have a reported value; give each one's IC50.
1. CS(=O)(=O)c1ccc(-c2oc(CO)cc(=O)c2Oc2ccc(F)cc2F)cc1 [Example 22]
2. C=Cc1c(C)oc(-c2ccc(S(C)(=O)=O)cc2)c(Oc2ccc(F)cc2F)c1=O [Example 20]

OUTPUT:
["53 µM", "31.2 µM"]

----------
Parameter Measured: melting point (°C)
Numbers only, in °C.

Cc1oc(-c2ccc(S(C)(=O)=O)cc2)c(Oc2ccc(Cl)cc2)c(=O)c1Br; 251
Cc1oc(-c2ccc(S(C)(=O)=O)cc2)c(Oc2ccc(F)cc2F)c(=O)c1C; 192
CCc1oc(-c2ccc(S(C)(=O)=O)cc2)c(Oc2ccc(F)cc2F)c(=O)c1C; 200
CCc1c(C)oc(-c2ccc(S(C)(=O)=O)cc2)c(Oc2ccc(F)cc2F)c1=O; 173
Cc1ccc(Oc2c(-c3ccc(S(C)(=O)=O)cc3)oc(C)cc2=O)c(F)c1; 171

Now examine the next entry.
INPUT: Entry `C=Cc1c(C)oc(-c2ccc(S(C)(=O)=O)cc2)c(Oc2ccc(F)cc2F)c1=O` : reported melting point = ?
OUTPUT: 184
